Where do these numbers come from? They come from ChEMBL document CHEMBL4219032.

List of IC50 tested on Sodium-dependent noradrenaline transporter (Homo sapiens).
Sequence (P23975 whole entry): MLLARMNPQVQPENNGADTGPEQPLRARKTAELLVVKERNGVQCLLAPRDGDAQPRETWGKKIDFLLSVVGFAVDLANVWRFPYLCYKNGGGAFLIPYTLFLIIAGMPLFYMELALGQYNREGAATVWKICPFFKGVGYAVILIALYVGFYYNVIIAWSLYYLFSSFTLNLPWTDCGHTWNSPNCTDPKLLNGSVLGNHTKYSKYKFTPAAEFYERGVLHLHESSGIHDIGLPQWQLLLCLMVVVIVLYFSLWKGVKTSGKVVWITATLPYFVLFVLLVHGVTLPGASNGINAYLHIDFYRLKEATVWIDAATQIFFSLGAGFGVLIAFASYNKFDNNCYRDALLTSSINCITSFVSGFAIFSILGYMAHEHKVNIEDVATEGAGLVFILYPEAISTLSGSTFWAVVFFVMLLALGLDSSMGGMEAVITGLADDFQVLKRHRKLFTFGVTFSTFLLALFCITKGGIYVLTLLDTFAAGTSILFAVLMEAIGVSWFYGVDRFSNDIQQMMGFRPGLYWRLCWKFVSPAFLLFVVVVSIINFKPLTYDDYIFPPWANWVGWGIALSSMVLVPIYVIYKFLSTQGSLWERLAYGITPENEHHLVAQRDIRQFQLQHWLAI
Answers are plain numbers, in nM.

Solved cases below.
Cc1cc2cc(OC3C[C@H]4CC[C@@H](C3)N4)ccc2oc1=O (some centres not stated) :: 10
N[C@H]1CC[C@H](c2ccc(Cl)c(Cl)c2)c2ccccc21 :: 4
COC[C@H]1[C@@H](c2ccc(Cl)c(Cl)c2)C[C@@H]2CC[C@H]1N2C :: 2
Cc1ccc(C23CNCC2C3)cc1 (configuration not stated) :: 55
CCOC[C@H]1[C@@H](c2ccc(Cl)c(Cl)c2)C[C@@H]2CC[C@H]1N2C :: 3.2

Could you tell me IC50 for each of these compounds? They are listed below.
1. CN1Cc2cc(-c3ccc(N)nn3)ccc2[C@H](c2ccc3ccccc3c2)C1
2. COC[C@@]12CNCC[C@]1(c1ccc(Cl)c(Cl)c1)C2

Outgoing:
1. 8.8
2. 8.1
